Assay protocol: in vivo
Reported conditions: both, Sprague-Dawley, rat, iv, 20 mg/kg
Where a SMILES comes first, the peptide text is derived from it. Bridges are numbered along the chain shown (N, C = ends).
Measured attribute: Cmax (ng/mL)
# output: bare number, implied unit ng/mL

q: Recall and state the measured Cmax for CC[C@H](C)[C@@H]1NC(=O)[C@@H]2CSSC[C@H](NC(=O)[C@H](CCCNC(=N)N)NC(=O)[C@@H]3CSSC[C@H](NC1=O)C(=O)N[C@@H]([C@@H](C)O)C(=O)N[C@@H](CCCNC(=N)N)C(=O)NCC(=O)N[C@@H](Cc1ccccc1)C(=O)N3)C(=O)N[C@@H](CC(C)C)C(=O)N[C@H]1CSSC[C@H](NC(=O)[C@H](C(C)C)NC(=O)CNC(=O)[C@H](CCCNC(=N)N)NC(=O)[C@H](CCCNC(=N)N)NC1=O)C(=O)N[C@@H](CCCNC(=N)N)C(=O)N2 [Peptide 1] (cyclo(GFCRCLCRRGVCRCICTR); disulfide 3-16, 5-14, 7-12) .
a: 35400
